System: HCI-015 (organoid from a triple-negative breast cancer xenograft)
assay.procedure: CTG-3D luminescence at 96 h relative to day-0 seeding control (ratio to day 0); higher = more growth / less cytotoxicity; PDxO 3D drug screen, 96 h, CTG-3D normalised to day-0 seeding control.
settings: 100 µM; days in culture: 191
Output schema: class label derived from CTG-3D luminescence at 96 h. Mapping: low-valued (below 0.002), mid-valued (0.002 to below 0.3), high-valued (0.3 or more)

See these solved cases before continuing.
molecule=CC(C)n1nc(-c2ccc3oc(N)nc3c2)c2c(N)ncnc21 class_name=mid-valued
molecule=C/C=C1\NC(=O)[C@H]2CSSCC/C=C/[C@H](CC(=O)N[C@H](C(C)C)C(=O)N2)OC(=O)[C@H](C(C)C)NC1=O class_name=low-valued
molecule=NC(=O)Nc1cc(-c2cccc(F)c2)sc1C(=O)N[C@H]1CCCNC1 class_name=low-valued
molecule=C=CCn1c(=O)c2cnc(Nc3ccc(N4CCN(C)CC4)cc3)nc2n1-c1cccc(C(C)(C)O)n1 class_name=mid-valued
molecule=Cc1cc(Nc2ncc(Cl)c(Nc3ccccc3S(=O)(=O)C(C)C)n2)c(OC(C)C)cc1C1CCNCC1 class_name=low-valued

Form field 'band' for C[C@@H]1COCCN1c1cc(C2([S@](C)(=N)=O)CC2)nc(-c2cc[nH]c3nccc2-3)n1
mid-valued

Kindly identify the class of C[C@H](NC(=O)CCC(F)(F)F)C(=O)N[C@@H]1C(=O)N(CCO)c2ncccc2-c2ccccc21 .
high-valued

Hey, which category is CC[C@H](NC(=O)[C@H](C)NC)C(=O)N1C[C@@H](O)C[C@H]1Cc1c(-c2[nH]c3cc(F)ccc3c2C[C@@H]2C[C@H](O)CN2C(=O)[C@H](CC)NC(=O)[C@H](C)NC)[nH]c2cc(F)ccc12 in, do you know?
mid-valued

Consider C[C@]12CC[C@@H]3c4ccc(O)cc4C[C@@H](CCCCCCCCC[S+]([O-])CCCC(F)(F)C(F)(F)F)[C@H]3[C@@H]1CC[C@@H]2O (some centres undefined) . To which CTG-3D luminescence at 96 h class does it belong?
high-valued

* * *

Test system: HCI-010 (organoid from a breast cancer xenograft)
assay.procedure: CTG-3D luminescence at 96 h relative to day-0 seeding control (ratio to day 0); higher = more growth / less cytotoxicity; PDxO 3D drug screen, 96 h, CTG-3D normalised to day-0 seeding control.
settings: 12.5 pM; days in culture: 65
CTG-3D luminescence at 96 h by entry:
Lab note: jot down the number only; don't add units.

compound="CC1(C)CCC(c2ccc(Cl)cc2)=C(CN2CCN(c3ccc(C(=O)NS(=O)(=O)c4ccc(N[C@H](CCN5CCOCC5)CSc5ccccc5)c(S(=O)(=O)C(F)(F)F)c4)cc3)CC2)C1 [navitoclax]" value_kind="CTG-3D luminescence at 96 h" recorded_measurement=1.61

Which CTG-3D luminescence at 96 h is reported for this compound? Cc1nc(-c2cn3c(n2)-c2ccc(-c4cnn(C(C)(C)C(N)=O)c4)cc2OCC3)n(C(C)C)n1 [taselisib]
1.89

Give its CTG-3D luminescence at 96 h value. Item: Cc1cc(Nc2ncc(Cl)c(Nc3ccccc3S(=O)(=O)C(C)C)n2)c(OC(C)C)cc1C1CCNCC1 [ceritinib]
1.61

Sample CCN1CCN(Cc2ccc(Nc3ncc(F)c(-c4cc(F)c5nc(C)n(C(C)C)c5c4)n3)nc2)CC1 [abemaciclib] — what was its CTG-3D luminescence at 96 h?
1.68
